test: MTS assay, NIH 3T3 cells; type: cell-based, mouse; conditions: mouse, NIH 3T3 fibroblast cells
Square brackets hold non-standard residues; d marks the D form. Peptide text beside a SMILES is read from it. Nspe = C[C@H](NCC(=O)O)c1ccccc1; Nlys = NCCCCNCC(=O)O
Value Type: CC50 at 3 h
In your response, the unit should come after the numeric value.

[in] Report CC50 at 3 h for C[C@@H](c1ccccc1)N(CC(N)=O)C(=O)CN(CCCCN)C(=O)CN(C(=O)CN(C(=O)CN(CCCCN)C(=O)CN(C(=O)CN(C(=O)CN(CCCCN)C(=O)CN(C(=O)CN(C(=O)CNCCCCN)[C@@H](C)c1ccccc1)[C@@H](C)c1ccccc1)[C@@H](C)c1ccccc1)[C@@H](C)c1ccccc1)[C@@H](C)c1ccccc1)[C@@H](C)c1ccccc1 [111 mer, H-(Nlys-Nspe-Nspe)3-Nlys-Nspe-NH2] (H-[Nlys][Nspe][Nspe][Nlys][Nspe][Nspe][Nlys][Nspe][Nspe][Nlys][Nspe]-NH2)
[out] 11 µM
